Entries and their Inhibition values follow.
System: Klebsiella pneumoniae
EXPERIMENTAL_CONTEXT: Concentration 32 ug.mL-1; ASSAY_TEST Inhibition of Bacterial Growth; detection method Absorption (OD600); MEDIA CAMHB; plate type 384well; NBS; CORNING #3640; time 18 hr
Description: Antibacterial activity against Klebsiella pneumoniae MDR ATCC 70063 (CO-ADD:GN_003); MIC in CAMBH media using NBS plates, by OD(600)
Results with a measured potency or affinity are listed apart.

| TEST_SMILES | SYSTEM_UNDER_TEST | MEASUREMENT_UNIT | Inhibition |
| --- | --- | --- | --- |
| COc1cc([N+](=O)[O-])ccc1-c1c(Nc2ccccc2)cccc1OC | Klebsiella pneumoniae | % | 14.15 |
| O=[N+]([O-])c1ccc(-c2ccccc2Nc2ccccc2)c(Cl)c1 | Klebsiella pneumoniae | % | 13.74 |
| Cc1cc(C)c(Nc2ccccc2-c2ccc([N+](=O)[O-])cc2)c(C)c1 | Klebsiella pneumoniae | % | -16.56 |
| COc1cccc(Nc2ccccc2)c1-c1ccc([N+](=O)[O-])cc1 | Klebsiella pneumoniae | % | -2.96 |
| O=[N+]([O-])c1ccc(-c2ccccc2Nc2ccccc2)cc1C(F)(F)F | Klebsiella pneumoniae | % | 20.57 |
| COc1cc([N+](=O)[O-])ccc1-c1ccccc1Nc1ccccc1 | Klebsiella pneumoniae | % | 18.46 |
| N#Cc1ccc(-c2ccccc2Nc2ccccc2)cc1 | Klebsiella pneumoniae | % | 9.14 |
| O=[N+]([O-])c1cc(Cl)c(-c2ccccc2Nc2ccccc2)c(Cl)c1 | Klebsiella pneumoniae | % | -1.39 |
| COc1ccc(Nc2ccccc2-c2ccc([N+](=O)[O-])cc2)cc1 | Klebsiella pneumoniae | % | 12.08 |
| O=[N+]([O-])c1ccc(-c2c(Nc3ccccc3)ccc3ccccc23)cc1 | Klebsiella pneumoniae | % | -5.26 |
| O=[N+]([O-])c1ccc(-c2ccccc2Nc2ccccc2)cc1F | Klebsiella pneumoniae | % | 14.23 |
| CC[C@@H](Nc1ccccc1-c1c(Cl)cc(Br)cc1Cl)c1ccccc1 | Klebsiella pneumoniae | % | 20.15 |
| COc1cccc(Nc2ccccc2)c1-c1c(Cl)cc(Br)cc1Cl | Klebsiella pneumoniae | % | 24.48 |
| c1ccc(Nc2ccccc2-c2ncccn2)cc1 | Klebsiella pneumoniae | % | 8.33 |
| Cc1cc([N+](=O)[O-])ccc1-c1ccccc1N(C)c1ccccc1 | Klebsiella pneumoniae | % | -15.08 |

Origin of measurements: ChEMBL document CHEMBL4513137
